# credit: PubChem BioAssay (NCI)

tested on: SNB-19 CNS; test: NCI-60 one-dose screen, 48 h (100 = growth as untreated, 0 = no growth, -100 = all killed); details: 10 µM unless noted
This is part of a sample that, as a whole, favours compounds with a hit. Of some 83,000 tested, about 20% had one in any assay.
Measured endpoint: growth (%)
Response body: numeric value in %, unit text excluded.

Report growth for "COc1cccc(-c2nc3cc(NC(=O)c4ccc(Cl)c(C#N)c4)ccc3o2)c1" please. 5.09

State the recorded growth for this entry: "O=C1NC(=S)S/C1=C\c1cc(Br)ccc1O" 107

If you can, please state the reported growth value of "CC(C)N(Cc1ccccc1)c1c(S)ssc1=S" . 20.9

For "Oc1c(Cl)cc(Cl)c(Cl)c1Cc1c(O)c(Cl)cc(Cl)c1Cl" , what is its reported growth? 23

// lookup growth for "COc1ccccc1NC(=O)c1sc2nc3c(cc2c1N)C(=O)CCC3" 64.6

Please look up its growth: "CC(C)Cn1cnc2c(NCn3nc(-c4cc(Cl)cc(Cl)c4Cl)n(/N=C/c4ccc(Cl)cc4)c3=S)nc3ccccc3c21" 108

I would be grateful if you could share the reported growth for "NC(=O)NC1(C(=O)O)CCCC1" . 113

What does the record list as growth for "Cc1ccc(/C=C(/C#N)n2nnc3ncccc32)cc1" ? 56.7

What does the data say about its growth? Entry: "CNNc1ncnc2c1cnn2-c1ccc(S(N)(=O)=O)cc1" 105

###

tested on: SK-MEL-2 melanoma; assay: NCI-60 one-dose screen, 48 h; details: 10 µM unless noted
This is part of a sample that, as a whole, favours compounds with a hit. Of some 83,000 tested, about 20% had one in any assay. Active and inactive are the calls of the source. The calls were made as follows: active = growth percent below 10; inactive = the rest.
Respond using exactly one of the listed classes: 1 (yes) = active, 0 (no) = inactive

Name the outcome recorded for "CN(C)CCC(=O)Nc1ccc(-n2cc(-c3cccc(NC(=S)Nc4cccc(-c5cn(-c6ccc(NC(=O)CCN(C)C)cc6)nn5)c4)c3)nn2)cc1" in the assay. 0 (no)

// param item: "O=C1Nc2ccc(C(=O)O)c(O)c2C1=O" ; yields the recorded call 0 (no)

Which outcome was entered for the compound "Nc1ccc2c(c1)C(=O)c1cc(Cl)c(Cl)cc1-2" in this test? 0 (no)

Outcome? "COc1cc(/C=C\C(C)=N\Nc2ccccc2)ccc1O" 0 (no)

What did this assay record as the result for "Nc1nc2c(nnn2Cc2ccc(Cl)c(Cl)c2)c(=O)[nH]1" ? 0 (no)

Dear colleague, could you share the recorded outcome for CC(NC(N)=S)c1ccccc1 (stereo not drawn) when you have a moment? 0 (no)

# outcome recorded in this test, key = "COC(=O)[C@H](Cc1cn(C)cn1)NC(=O)[C@@H](NC(=O)Nc1cc(C(F)(F)F)cc(C(F)(F)F)c1)C(C)C" 1 (yes)

// param item: "O=C(O)CCNS(=O)(=O)c1ccc(-c2ccccc2)cc1" ; yields the recorded call 1 (yes)

Record request — test call for "COc1cccc(-c2nc3cc(NC(=O)c4ccc(Cl)c(C#N)c4)ccc3o2)c1" 0 (no)

Status in this test for "O=C(Nc1ccc2c(c1)C(=O)c1ccccc1-2)c1ccccc1" ? 0 (no)

I'd appreciate the recorded outcome for "CC(=O)[C@H]1CC[C@H]2[C@@H]3C[C@H](C)C4=CC(=O)CC[C@]4(C)[C@H]3C(=O)C[C@]12C" from this test. 0 (no)

Answer briefly: the call reported for "COc1ccc2c(c1)[n+](=O)c(/C=C/C(=O)c1cc(OC)c(OC)c(OC)c1)c(C)n2[O-]" in this assay. 0 (no)

Which outcome was entered for the compound "O=C(Nc1ccccc1)P(=O)(O)c1ccccc1" in this test? 0 (no)

// return assay outcome for "Nc1nc(Nc2ccccc2SSc2ccccc2Nc2nc(N)nc(-c3ccc(I)cc3)n2)nc(-c2ccc(I)cc2)n1" 0 (no)

Please share the test call associated with "NS(=O)(=O)c1cc2c(cc1Cl)NC=NS2(=O)=O" . 0 (no)

Tell me the recorded outcome of this test for "COc1cccc(C=Nc2cc(C(C)C)c(O)cc2C)c1O" . 0 (no)

Given "CC(=O)Nc1ccc(C(=O)COc2ccc(/C=C3\CCc4ccccc4C3=O)cc2)cc1" , state the outcome it received in this test. 0 (no)

Dear all, I need the recorded test outcome for "O=c1[nH]c(SCc2ccccc2)nc2nc(Nc3ccc(NC(=S)Nc4ccccc4)cc3)nc(-c3ccc(O)cc3O)c12" , thank you. 0 (no)
